# Target Or Test System: Neutrophil elastase (Homo sapiens) (UniProt P08246)
# Sequence (whole entry): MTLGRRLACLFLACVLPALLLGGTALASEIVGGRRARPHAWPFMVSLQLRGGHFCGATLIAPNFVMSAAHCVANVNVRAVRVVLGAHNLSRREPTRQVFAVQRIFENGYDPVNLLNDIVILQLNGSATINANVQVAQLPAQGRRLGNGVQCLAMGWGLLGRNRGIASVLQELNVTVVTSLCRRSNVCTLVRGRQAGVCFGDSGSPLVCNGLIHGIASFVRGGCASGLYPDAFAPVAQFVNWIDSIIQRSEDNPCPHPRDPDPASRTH
# Assay Summary: Inhibitory activity against human leukocyte elastase (HLE) expressed as second order inhibition rate constant
# label = Condition met if k on < 300 M⁻¹ s⁻¹ else Condition not met

Consider the following illustrative entries.
{"Structure": "CO[C@H]1C(=O)N2c3c(csc3C(C)(C)C)CS(=O)(=O)[C@H]12", "Label Class": "Condition met"}
{"Structure": "CO[C@H]1C(=O)N2c3c(c[nH]c3C(C)(C)C)CS(=O)(=O)[C@H]12", "Label Class": "Condition not met"}
{"Structure": "CO[C@H]1C(=O)N2c3c(cn(C(=O)C(C)(C)C)c3-c3ccccc3)CS(=O)(=O)[C@H]12", "Label Class": "Condition not met"}
{"Structure": "CO[C@H]1C(=O)N2c3c(csc3-c3ccccc3)CS(=O)(=O)[C@H]12", "Label Class": "Condition met"}
{"Structure": "CO[C@H]1C(=O)N2c3c(cn(-c4ccc([N+](=O)[O-])cc4)c3-c3ccccc3)CS(=O)(=O)[C@H]12", "Label Class": "Condition not met"}

is_below(k on, 300 M⁻¹ s⁻¹) for CO[C@H]1C(=O)N2c3c(c[nH]c3-c3ccccc3)CS(=O)(=O)[C@H]12 ?
Condition not met
